- target_or_system: Human immunodeficiency virus type 1 protease (Human immunodeficiency virus 1)
observable: pKi
Give bare numbers, as −log10 of the molar value.

Observe how each entry below is paired with its result.
{"molecule": "CCC(c1cccc(NS(=O)(=O)c2ccc(C#N)cc2)c1)c1c(O)c2c(oc1=O)CCCCCC2 (stereo unspecified)", "pKi": 8.51}
{"molecule": "O=c1c2c(oc(O)c1C(c1cccc(NS(=O)(=O)c3cccc4ccccc34)c1)C1CC1)CCCCCC2 (stereo unspecified)", "pKi": 8.26}
{"molecule": "O=c1c2c(oc(O)c1C(c1cccc(NS(=O)(=O)Cc3ccccc3)c1)C1CC1)CCCCCC2 (stereo unspecified)", "pKi": 7.89}

Please go through the list and note pKi for each molecule.
1. O=c1c2c(oc(O)c1C(c1cccc(NS(=O)(=O)c3cccc([N+](=O)[O-])c3)c1)C1CC1)CCCCCC2 (stereo unspecified)
2. O=c1c2c(oc(O)c1C(c1cccc(NS(=O)(=O)c3ccc(C(F)(F)F)c(C(F)(F)F)c3)c1)C1CC1)CCCCCC2 (stereo unspecified)
3. CCS(=O)(=O)Nc1cccc(C(c2c(O)c3c(oc2=O)CCCCC3)C2CC2)c1 (stereo unspecified)

[8.33, 7.33, 7.20]

Provide pKi for all items below, preserving their order.
1. O=c1c2c(oc(O)c1[C@H](c1cccc(NS(=O)(=O)c3ccc(F)cc3)c1)C1CC1)CCCCCC2
2. Cn1cnc(S(=O)(=O)Nc2cccc([C@@H](c3c(O)c4c(oc3=O)CCCCCC4)C3CC3)c2)c1

[8.85, 10.35]

Batch request: pKi per item, same order as input.
1. O=c1c2c(oc(O)c1C(c1cccc(NS(=O)(=O)c3ccc(F)cc3F)c1)C1CC1)CCCCCC2 (stereo unspecified)
2. O=c1c2c(oc(O)c1C(c1cccc(NS(=O)(=O)c3ccc(C(F)(F)F)cc3)c1)C1CC1)CCCCCC2 (stereo unspecified)
3. O=c1c2c(oc(O)c1[C@@H](c1cccc(NS(=O)(=O)c3cccc4cccnc34)c1)C1CC1)CCCCCC2

[8.39, 8.21, 9.05]

The following molecules each have a reported value; give each one's pKi.
1. N#Cc1cccc(S(=O)(=O)Nc2cccc(C(c3c(O)oc4c(c3=O)CCCCCC4)C3CC3)c2)c1 (stereo unspecified)
2. O=c1c2c(oc(O)c1C(c1cccc(NS(=O)(=O)c3cnccn3)c1)C1CC1)CCCCCC2 (stereo unspecified)
3. O=c1c2c(oc(O)c1C(c1cccc(NS(=O)(=O)c3cccc(Cl)c3Cl)c1)C1CC1)CCCCCC2 (stereo unspecified)
4. CC(C)CC(c1cccc(NS(=O)(=O)c2ccc(F)cc2)c1)c1c(O)c2c(oc1=O)CCCCCC2 (stereo unspecified)
5. O=c1c2c(oc(O)c1C(c1cccc(NS(=O)(=O)c3cccc(C(F)(F)F)c3)c1)C1CC1)CCCCCC2 (stereo unspecified)
6. CCC(c1cccc(NS(=O)(=O)c2ccc(Cl)cc2)c1)c1c(O)c2c(oc1=O)CCCCCC2 (stereo unspecified)
7. O=C(O)c1ccc(S(=O)(=O)Nc2cccc(C(c3c(O)c4c(oc3=O)CCCCCC4)C3CC3)c2)cc1 (stereo unspecified)

1. 9.22
2. 9.70
3. 8.12
4. 8.55
5. 8.52
6. 8.46
7. 7.96

For every item in the list below, what is its measured pKi?
1. CC(C)(C)c1ccc(S(=O)(=O)Nc2cccc(C(c3c(O)c4c(oc3=O)CCCCCC4)C3CC3)c2)cc1 (stereo unspecified)
2. N#Cc1ccccc1S(=O)(=O)Nc1cccc(C(c2c(O)oc3c(c2=O)CCCCCC3)C2CC2)c1 (stereo unspecified)
3. COc1ccc(S(=O)(=O)Nc2cccc(C(c3c(O)c4c(oc3=O)CCCCCC4)C3CC3)c2)cc1 (stereo unspecified)
4. CC(C)C(c1cccc(NS(=O)(=O)c2ccc(F)cc2)c1)c1c(O)c2c(oc1=O)CCCCCC2 (stereo unspecified)
5. Nc1cccc(S(=O)(=O)Nc2cccc(C(c3c(O)c4c(oc3=O)CCCCCC4)C3CC3)c2)c1 (stereo unspecified)
6. O=c1c2c(oc(O)c1C(c1cccc(NS(=O)(=O)c3ccc(OC(F)(F)F)cc3)c1)C1CC1)CCCCCC2 (stereo unspecified)
7. O=c1c2c(oc(O)c1C(c1cccc(NS(=O)(=O)/C=C/c3ccccc3)c1)C1CC1)CCCCCC2 (stereo unspecified)

1: 7.49; 2: 8.13; 3: 8.41; 4: 7.96; 5: 8.64; 6: 8.40; 7: 8.52

All figures here come from ChEMBL document CHEMBL1129987.
